# System: MDA-MB-231
# Method Notes: Antiproliferative activity against human MDA-MB-231 cells
# Format: functional
Would you kindly list GI50 for each of these compounds?

Reference set, count: 5
Prompt: # get_value(readout='GI50', item= CCCCCCCCc1ccc(NC(=O)NCCCl)cc1 )
Completion: 48 µM

Prompt: Which value of GI50 has been reported for O=C(NCCCl)Nc1cccc2ccccc12 in the records?
Completion: 220 µM

Prompt: Which GI50 is listed for Cc1cccc(NC(=O)NCCCl)c1 ?
Completion: 88 µM

Prompt: For CCCCCCCCCCCc1ccc(NC(=O)NCCCl)cc1 , what is its reported GI50?
Completion: 587 µM

Prompt: Query (compound): Cc1cc(C)c(NC(=O)NCCCl)c(C)c1 ; field requested: GI50
Completion: 587 µM

Need GI50 for each of these compounds.
1. CCc1cccc(NC(=O)NCCCl)c1
2. CCc1ccccc1NC(=O)NCCCl

Completion:
1: 16 µM; 2: 400 µM

Hello, the source for this data is ChEMBL document CHEMBL1143982, in case you need it.
